Ref: patent US20120135923A1

- system-name: T1, human melanocortin receptor subtype 1 (hMC1-R) (human, UniProt Q01726 1-317)
- T1 construct: whole, on cells; membranes of CHO-K1 cells
- T1 sequence (Q01726 whole entry): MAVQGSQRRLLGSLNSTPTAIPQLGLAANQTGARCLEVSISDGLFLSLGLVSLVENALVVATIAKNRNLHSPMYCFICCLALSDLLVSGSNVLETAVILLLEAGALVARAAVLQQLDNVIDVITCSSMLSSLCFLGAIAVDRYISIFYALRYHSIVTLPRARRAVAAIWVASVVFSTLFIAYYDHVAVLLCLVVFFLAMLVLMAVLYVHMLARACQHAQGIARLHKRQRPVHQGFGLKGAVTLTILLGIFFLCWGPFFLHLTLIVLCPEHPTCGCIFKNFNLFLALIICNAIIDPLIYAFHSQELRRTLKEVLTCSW
- protocol: [125I]-NDP-α-MSH competition, membranes
Bridge positions count the residues as written; N and C are the ends. Square brackets hold non-standard residues; d marks the D form. Ends that are not written are not given here. 2Nal = N[C@@H](Cc1ccc2ccccc2c1)C(=O)O; d2Nal = N[C@H](Cc1ccc2ccccc2c1)C(=O)O; βAla = NCCC(=O)O
measured-endpoint: Ki (nM)

>  <binder>
CEHXRXACPPKDXYGRKKRRQRRR (N-terminal Ac; D-2-Nal at 4; 1-Nal at 6; β-Ala at 13; disulfide Cys1-Cys8; C-terminal NH2)

>  <measured-endpoint>
Ki

>  <reported>
4.59

$$$$
>  <binder>
Ac-CEH[d2Nal]R[2Nal]ACPPKD[βAla]GRKRRRQRRR-NH2 (disulfide 1-8) [Ac-c(Cys-Glu-His-D-2-Nal-Arg-2-Nal-Ala-Cys)-Pro-Pro-Lys-Asp-β-[…]NH2]

>  <measured-endpoint>
Ki

>  <reported>
5.66

$$$$
>  <binder>
RGC[dA]H[d2Nal]RWC-NH2 (disulfide 3-9; also: N-terminal hydantoin: C(O) bridges Arg1 N-alpha and Gly2 N, bridge at N via C(O), other end not in the chain) [Hydantoin(C(O)-(Arg-Gly))-c(Cys-D-Ala-His-D-2-Nal-Arg-Trp-Cys)-NH2]

>  <measured-endpoint>
Ki

>  <reported>
11.9

$$$$
